Where these numbers come from: ChEMBL document CHEMBL1201862

# Tested on: SF-539
# measurement-description: NCI tumour cell line growth inhibition, 48 h
Activity calls are given as the source filed them. Rule as the data show it: active = GI50 up to about 1.1 µM and inactive = higher.
# maps each entry to its GI50

compound	data-value
CC(C)C1=CC23CCC4C(C)(C(=O)O)CCCC4(C)C2CC1C1C(=O)N(c2ccc(N4C(=O)C5C6CC7C8(C)CCCC(C)(C(=O)O)C8CCC7(C=C6C(C)C)C5C4=O)cc2)C(=O)C13 (stereo not given)	4.3 µM (inactive)

Inquiry: Please list GI50 recorded for the compound Cc1cc(O)nc(NNC(C#N)c2cccc([N+](=O)[O-])c2)n1 (stereo not given)
Reply text: > 100 µM (inactive)

* * *

# Test system: XF498
# measurement-description: NCI tumour cell line growth inhibition, 48 h
Activity calls are given as the source filed them. No stated cut-off is given here; in the data, active = GI50 up to about 1.1 µM and inactive = higher.
Thanks in advance; please answer with one of these: Yes (active), No (inactive)

The examples below pair each entry with its known result.
molecule	group
Clc1ccc2[nH]c(CCSCCc3nc4ccc(Cl)cc4[nH]3)nc2c1	No
O=C1C2=C(c3ccccc31)C(c1ccc([N+](=O)[O-])cc1)NC(S)=N2 (stereo unspecified)	No
COC(=O)C1CC(C(=O)OC)c2nc3cc(C)c(C)cc3nc21 (stereo unspecified)	No

Inquiry: What was the test verdict on CC(=O)Oc1cc(OC(C)=O)c(OC(C)=O)c2c1CC1C(=O)C3(CCc4ccccc43)C(=O)C1C2 (stereo unspecified) ?
Reply text: No

Inquiry: What was the test verdict on `CC(C)C(=O)NC(=S)Nc1ccc([N+](=O)[O-])cc1C#N` ?
Reply text: No

Inquiry: What was the test verdict on `CC(=O)NNc1nc(C)c(C(=O)/C=C/c2ccc(/C=C/C(=O)c3sc(NNC(C)=O)nc3C)cc2)s1` ?
Reply text: No

Inquiry: What was the test verdict on `CN1CCCN2CCN(C)CCCN(CC1)CC2` ?
Reply text: No

Inquiry: What was the test verdict on `Clc1ccc(OCc2nnc3n2N=C(c2ccccc2)CS3)c(Cl)c1` ?
Reply text: No

Inquiry: What was the test verdict on CC(O)C(O)C(N)CC=O (stereo unspecified) ?
Reply text: No

Inquiry: What was the test verdict on `CC1(C)CC(/C=C2/OC(=O)c3ccccc32)=C(C#N)C(=O)O1` ?
Reply text: No

* * *

# Tested on: SNB-75
# measurement-description: NCI tumour cell line growth inhibition, 48 h
Active and inactive are the calls of the source. Rule as the data show it: active = GI50 up to about 1.1 µM and inactive = higher.
Thanks in advance; please answer with one of these: active, inactive

Inquiry: What was the test verdict on `CC1(C)CC(/C=C2/OC(=O)c3ccccc32)=C(C#N)C(=O)O1` ?
Reply text: inactive

Inquiry: What was the test verdict on `O=C1c2c(nc3ccccc3c2-c2ccccc2)CN1Nc1ccccn1` ?
Reply text: inactive

Inquiry: What was the test verdict on CCCCCCCCCCCCCC(=O)O.O=CC(O)C(O)C(OC1OC(CO)C(O)C(O)C1O)C(O)CO (stereo not given) ?
Reply text: inactive

Inquiry: What was the test verdict on CCOC(=O)C1CCC(=O)N1C(=O)c1cccc(Cl)c1 (stereo not given) ?
Reply text: inactive

Inquiry: What was the test verdict on `C=CCCON(C(=O)OC(C)(C)C)C(C)(C)C` ?
Reply text: inactive

Inquiry: What was the test verdict on CC(NC(=O)Cc1ccccc1)NC(=O)C(C)C(=O)Nc1ccccc1 (stereo not given) ?
Reply text: inactive

Inquiry: What was the test verdict on COC(=O)C1CCc2nnc(-c3cccnc3)n21 (stereo not given) ?
Reply text: inactive

Inquiry: What was the test verdict on `O=C1C=C(Nc2cc(Cl)ccc2Cl)c2ccccc2C1=O` ?
Reply text: inactive
